- Test system: SF-268 CNS
- assay.comment: NCI-60 one-dose screen, 48 h
- settings: 10 µM unless noted
The panel holds about 83,000 compounds, 20% with a hit somewhere; the sample as a whole holds those more often. The source made the active and inactive calls. How the source made its calls: active means growth percent below 10; inactive means the rest.
Outcome codes: active, inactive

# compound, classification
data = [
    ("O=C(c1ccccc1)C1OC1C(=O)c1ccccc1 (stereo not given)", "inactive"),
    ("c1ccc2oc(-c3cnc4nonc4n3)cc2c1", "inactive"),
    ("CN(C)c1nc(-c2cccs2)n2nc(-c3ccc(Cl)cc3)cc2n1", "inactive"),
    ("CC1OC(n2c3ccccc3c3c4c(c5c6ccccc6[nH]c5c32)C(=O)N(CCN2CCOCC2)C4=O)CC(O)C1O (stereo not given)", "inactive"),
    ("COc1ccc2c(c1)sc1nc(-c3ccccc3)c(-c3cccc4ccccc34)n12", "inactive"),
    ("c1cn2cc(-c3ccc4ncn(C5CCCCC5)c4c3)nc(-c3ccc4c(c3)ncn4C3CCCCC3)c2n1", "active"),
    ("COc1cc(/C=C/c2cc(/C=C/c3ccc(O)c(OC)c3)n(C(=O)Nc3ccc(F)c(Cl)c3)n2)ccc1O", "active"),
    ("N/C(=N\\O)c1ncc(-c2ccc(C(F)(F)F)cc2)c(NC2CCCCCC2)n1", "active"),
    ("Cc1c2c(cc3c1[nH]c1ccccc13)C=NCC2", "inactive"),
    ("C=CCOc1ccc2c(C)cc(=O)oc2c1", "inactive"),
]

Entry source: PubChem BioAssay (NCI)
